These measurements were taken from the supplement of paper PMC3334620.

TARGET OR SYSTEM: Nrg2 (UniProt P38082)
Sequence: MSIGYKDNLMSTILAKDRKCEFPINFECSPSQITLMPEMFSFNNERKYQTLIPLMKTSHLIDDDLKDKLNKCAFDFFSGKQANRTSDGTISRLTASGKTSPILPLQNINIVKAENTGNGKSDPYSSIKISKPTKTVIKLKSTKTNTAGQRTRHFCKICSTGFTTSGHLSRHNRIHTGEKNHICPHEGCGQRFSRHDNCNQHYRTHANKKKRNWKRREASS
ASSAY NAME: PBM E-score (8-mer binding enrichment) (E-score (-0.5 to 0.5)); higher = stronger / more preferred TF binding
ASSAY CONDITIONS: protein concentration: 100 nM; construct: GST-full length
In all, about 33,000 sequences were measured (“E-score (-0.5 to 0.5)”: median about -8e-05, highest 2% from about 0.23 on). The full list was thinned out, with the highest values kept by preference.
VALUE KIND: PBM E-score

Use these answered entries as a reference point.
| BIOSEQUENCE | VALUE KIND | MEASURED VALUE |
| --- | --- | --- |
| AATATTAT | PBM E-score | 0.219 |
| CCCGCCAC | PBM E-score | 0.269 |
| AAACTCCC | PBM E-score | -0.0959 |
| AGATTCGA | PBM E-score | 0.0269 |
| AGAAACTG | PBM E-score | 0.0813 |
| AGGGCTGA | PBM E-score | -0.201 |
| ACGCGATC | PBM E-score | 0.146 |
| ATAACATA | PBM E-score | 0.123 |
| ATTGCGAG | PBM E-score | 0.0375 |
| AACGGCGT | PBM E-score | -0.11 |

Field: PBM E-score. Fill in for each record below.
1. GTTCGAAC
2. ACTCTTTA
3. CATTCGAA
4. ATCAAAAT
5. CTTAACAC
6. GCTATCTA
7. AAGCTGAG
8. GATATTAA

[0.233, -0.0446, 0.0948, -0.0176, 0.0347, -0.0754, -0.00374, 0.147]

Field: PBM E-score. Fill in for each record below.
1. ATTCCACG
2. ATTAACAC
3. ATCAAAAG
4. AAGGGACC
5. GGGTCTCA
6. ATCAATTA
7. AAAGATAG
8. AAAAATTG

1: 0.0249; 2: 0.246; 3: 0.00066; 4: 0.424; 5: 0.0513; 6: 0.271; 7: -0.188; 8: -0.095

Field: PBM E-score. Fill in for each record below.
1. ACCCCGGG
2. ACTCCCCA
3. AGTTGATC
4. TATATTAA

1: -0.056; 2: -0.0321; 3: 0.137; 4: 0.234

Field: PBM E-score. Fill in for each record below.
1. AATATTAG
2. GGATTCGA
3. AACGGCAT
4. AACCCGGG
5. AAGGGACA
6. CCATTCAC

[0.256, -0.0125, 0.23, 0.255, 0.137, 0.0939]

Field: PBM E-score. Fill in for each record below.
1. AGCTGGCG
2. ACTAGGAA
3. AACGGCGA
4. AATGGCAC
5. AGTATACG
6. GGCCAACC

-0.158
-0.094
0.303
-0.0263
0.0367
0.0203

Field: PBM E-score. Fill in for each record below.
1. AAAGATAC
2. AATATTAA
3. AAGATCTT
4. CTCATTAA
5. GAGGGACC
6. ATAAATTG
7. CTTCGATC

[0.232, 0.295, -0.0257, 0.173, 0.0355, 0.272, -0.00647]

Field: PBM E-score. Fill in for each record below.
1. AGTATTAG
2. ATCCCGCA

1: 0.273; 2: 0.08

Field: PBM E-score. Fill in for each record below.
1. ATTCCACC
2. AAAACCAT
3. GACAGCCC
4. ACTGCTCC
5. ACTAAATG
6. AATATTAC
7. AATGGCCG

[0.0335, 0.137, -0.099, 0.0162, -0.0439, 0.14, -0.134]
